Entry source: patent US20230374116A1

biological target: SARS-CoV-2 receptor-binding domain (amino acids 330-532), prototypical Wuhan/Victoria (SARS-CoV-2 (Wuhan/Victoria), UniProt P0DTC2 330-532); assay: SPR, RBD binding kinetics
reported_metric: koff (s⁻¹)
The reply should contain only the number, in s⁻¹.

Query block: Quick one: koff of C1-SUMO-C5-Fc (Fc fusion, also called C1-GSGSGS-SUMO-GSGSGS-C5) QVQLVESGGGLVQPGGSLRLSCAASGFTNDFYSIAWFRQAPGKEREGVSWLSVSDNTPTYVDSVKDRFTISRHNANNTVYLQMNMLKPEDTAIYYCAAGRFAGRDTWPSSYDYWGQGTQVTVSSGSGSGSDSEVNQEAKPEVKPEVKPETHINLKVSDGSSEIFFKIKKTTPLRRLMEAFAKRQGKEMDSLRFLYDGIRIQADQTPEDLDMEDNDIIEAHREQIGSGSGSQVQLVESGGGSVQAGGSLTLSCVASGVTLGRHAIGWFRQAPGKERERVSCIRTFDGITSYVESTKGRFTISSNNAMNTVYLQMNSLKPEDTAVYFCALGVTAACSDNPYFWGQGTQVTVSS ?
Result block: 4.9e-05
